# System: HCV 1a-genetype replicon H77
# experimental details: HCV replicon luciferase assay, HCV-1a replicon (Huh7-H77, renilla luciferase)
# Format: cell-based
# measurement parameters: Hepatitis C virus, Huh7-H77 cells, 72 hours
Rule: EC50 below 40 pM gives Met, anything at or above gives Not met.

A selection of reference data follows.
>  <compound>
COC(=O)N[C@H](C(=O)N1C[C@H](F)C[C@H]1C(=O)Nc1ccc2c(c1)OC(c1ccccc1)n1c-2cc2cc(NC(=O)[C@@H]3C[C@H](F)CN3C(=O)[C@@H](NC(=O)OC)C(C)C)ccc21)C(C)C (some centres unmarked)

>  <classification>
Not met

$$$$
>  <compound>
COC(=O)N[C@H](C(=O)N1CC(F)(F)C[C@H]1C(=O)Nc1ccc2c(c1)OC(c1ccccc1)n1c-2cc2cc(NC(=O)[C@@H]3CC(F)(F)CN3C(=O)[C@@H](NC(=O)OC)C(C)C)ccc21)C(C)C (some centres unmarked)

>  <classification>
Not met

$$$$

Please let me know if `COC(=O)N[C@H](C(=O)N1CCC[C@H]1C(=O)Nc1ccc2c(c1)O[C@@H](c1c(F)c(F)cc(F)c1F)n1c-2cc2cc(NC(=O)[C@@H]3CCCN3C(=O)[C@@H](NC(=O)OC)C(C)C)ccc21)C(C)C` shows EC50 below 40 pM.
Met

Please let me know if `COC(=O)N[C@H](C(=O)N1CCC[C@H]1C(=O)Nc1ccc2c(c1)O[C@@H](c1cc(F)cc(F)c1)n1c-2cc2cc(NC(=O)[C@@H]3CCCN3C(=O)[C@@H](NC(=O)OC)C(C)C)ccc21)C(C)C` shows EC50 below 40 pM.
Met

Please let me know if `COC(=O)N[C@H](C(=O)N1CCC[C@H]1C(=O)Nc1ccc2c(c1)O[C@@H](c1c(F)c(F)c(F)c(F)c1F)n1c-2cc2cc(NC(=O)[C@@H]3CCCN3C(=O)[C@@H](NC(=O)OC)C(C)C)ccc21)C(C)C` shows EC50 below 40 pM.
Not met

Please let me know if `COC(=O)N[C@H](C(=O)N1CCC[C@H]1C(=O)Nc1ccc2c(c1)O[C@@H](c1cc(F)c(F)c(F)c1)n1c-2cc2cc(NC(=O)[C@@H]3CCCN3C(=O)[C@@H](NC(=O)OC)C(C)C)ccc21)C(C)C` shows EC50 below 40 pM.
Met

Please let me know if `COC(=O)N[C@H](C(=O)N1CCC[C@H]1C(=O)Nc1ccc2c(c1)O[C@@H](c1ccccc1)n1c-2cc2cc(NC(=O)[C@@H]3CCCN3C(=O)[C@@H](NC(=O)OC)C(C)C)ccc21)C(C)C` shows EC50 below 40 pM.
Not met

Please let me know if COC(=O)N[C@H](C(=O)N1CC2(CC2)C[C@H]1C(=O)Nc1ccc2c(c1)OC(c1cc(F)cc(F)c1)n1c-2cc2cc(NC(=O)[C@@H]3CC4(CC4)CN3C(=O)[C@@H](NC(=O)OC)C(C)C)ccc21)C(C)C (some centres unmarked) shows EC50 below 40 pM.
Met

Please let me know if COC(=O)N[C@H](C(=O)N1CCC[C@H]1C(=O)Nc1ccc2c(c1)OC(c1ccccc1)n1c-2cc2cc(NC(=O)[C@@H]3CCCN3C(=O)[C@@H](NC(=O)OC)C(C)C)ccc21)C(C)C (some centres unmarked) shows EC50 below 40 pM.
Not met
